# Measurement Notes: CLint estimates using human liver microsomes (Method 4)
# Type: in vitro ADME
# Assay Context: pH 7.4, 1 μM compound, read-out: Mics - CLint (HLM CLint)
Listing of recorded microsomal CLint at 1 μM by entry.

Test Smiles	microsomal CLint at 1 μM
CN(C)Cc1cc(Nc2ncc3c(n2)N(C)CN(c2c(Cl)cccc2Cl)C3=O)ccc1N1CCS(=O)(=O)CC1	≤ 15 µL/min/mg
CN1CN(c2c(Cl)cccc2Cl)C(=O)c2cnc(Nc3ccc(N4CCNCC4)c(F)c3)nc21	≤ 15 µL/min/mg
CNCc1cc(Nc2ncc3c(n2)N(C)CN(c2c(Cl)cccc2Cl)C3=O)ccc1N(C)C	15 to 50 µL/min/mg
COCc1cc(Nc2ncc3c(n2)N(C)CN(c2c(Cl)cccc2Cl)C3=O)ccc1N1CCN(C)[C@H](C)C1	≤ 15 µL/min/mg

====

# Tested System: Wee-1 kinase (Homo sapiens)

Compound	IC50
CN1CCC(Oc2ccc(Nc3ncc4c(n3)N(C)CN(c3c(Cl)cccc3Cl)C4=O)cc2)CC1	10 to 100 nM
CN(C)CC(=O)N1CCN(c2ccc(Nc3ncc4c(n3)N(C)CN(c3c(Cl)cccc3Cl)C4=O)cc2CO)CC1	≤ 10 nM
C[C@@H]1CN[C@@H](C)CN1c1ccc(Nc2ncc3c(n2)N(C)CN(c2c(Cl)cccc2Cl)C3=O)cc1F	10 to 100 nM
CC(C)N1CCN(c2ccc(Nc3ncc4c(n3)N(C)CN(c3c(Cl)cccc3Cl)C4=O)cc2CO)CC1	10 to 100 nM
CN1CN(c2c(Cl)cccc2Cl)C(=O)c2cnc(Nc3ccc(N4CCN(C)[C@H](CO)C4)c(F)c3)nc21	10 to 100 nM
COC[C@H]1CN(c2ccc(Nc3ncc4c(n3)N(C)CN(c3c(Cl)cccc3Cl)C4=O)cc2C(O)C(F)(F)F)CCN1 (single isomer, unassigned)	≤ 10 nM
CN1CN(c2c(Cl)cccc2Cl)C(=O)c2cnc(Nc3ccc(S(C)(=N)=O)cc3)nc21 (racemic)	10 to 100 nM
CN1CN(c2c(Cl)cccc2Cl)C(=O)c2cnc(Nc3ccc(N4CCN5CCOC[C@@H]5C4)c(CO)c3)nc21	10 to 100 nM
CN1CN(c2c(Cl)cccc2Cl)C(=O)c2cnc(Nc3ccc(N4CCN(C)[C@@H](CO)C4)cc3)nc21	10 to 100 nM
COCCN1CCN(c2ccc(Nc3ncc4c(n3)N(C)CN(c3c(Cl)cccc3Cl)C4=O)cc2)CC1	≥ 100 nM
Cc1cc(Nc2ncc3c(n2)N(C)CN(c2c(Cl)cccc2Cl)C3=O)ccc1C1=CCN(C)CC1	≤ 10 nM
COc1cc(Nc2ncc3c(n2)N(C)CN(c2c(Cl)cccc2Cl)C3=O)ccc1C1CCN(C)CC1	≤ 10 nM
CN1CN(c2c(Cl)cccc2Cl)C(=O)c2cnc(Nc3ccc(N4CCNCC4)cc3)nc21	≤ 10 nM
CN1CN(c2c(Cl)cccc2Cl)C(=O)c2cnc(Nc3ccc(N4CCNC(C(F)(F)F)C4)cc3)nc21 (stereo not drawn)	10 to 100 nM
CN1CN(c2ccccc2Cl)C(=O)c2cnc(Nc3ccc(N4CCNC5(CC5)C4)cc3)nc21	10 to 100 nM

====

Listing of recorded microsomal CLint at 1 μM by entry.
# Measurement Notes: CLint estimates using human liver microsomes (Method 4)
# Format: in vitro ADME
# Assay Context: pH 7.4, 1 μM compound, read-out: Mics - CLint (HLM CLint)

Compound	microsomal CLint at 1 μM
Cc1cc(Nc2ncc3c(n2)N(C)CN(c2c(Cl)cccc2Cl)C3=O)ccc1N1C[C@H]2C[C@@H]1CN2 [Example 118]	≤ 15 µL/min/mg
CN1CN(c2c(Cl)cccc2Cl)C(=O)c2cnc(Nc3ccc(N4CCN(C)C(C)(C)C4)cc3)nc21 [Example 63]	15 to 50 µL/min/mg
CN1CN(c2c(Cl)cccc2Cl)C(=O)c2cnc(Nc3ccc(N4CC5CCC(C4)N5C)c(CO)c3)nc21 [Example 86]	≤ 15 µL/min/mg
CCN1CCN(c2ccc(Nc3ncc4c(n3)N(C)CN(c3c(Cl)cccc3Cl)C4=O)cc2)CC1 [Example 122]	15 to 50 µL/min/mg

====

# Measurement Notes: CLint estimates using human liver microsomes (Method 4)
# Assay type: in vitro ADME
# Assay Context: pH 7.4, 1 μM compound, read-out: Mics - CLint (HLM CLint)
Test Readout: microsomal CLint at 1 μM

Test Smiles	Result
Cc1cccc(Cl)c1N1CN(C)c2nc(Nc3ccc(N4CC5CCC(C4)N5C)c(CO)c3)ncc2C1=O	≤ 15 µL/min/mg
Cc1cc(Nc2ncc3c(n2)N(C)CN(c2c(Cl)cccc2Cl)C3=O)ccc1N1CCNCC1	15 to 50 µL/min/mg
C[C@@H]1CN(c2ccc(Nc3ncc4c(n3)N(C)CN(c3c(Cl)cccc3Cl)C4=O)cc2CO)CCN1	≤ 15 µL/min/mg
Cc1cc(Nc2ncc3c(n2)N(C)CN(c2ccccc2Cl)C3=O)ccc1N1C[C@@H]2C[C@H]1CN2	≤ 15 µL/min/mg
C[C@@H]1CN(c2ccc(Nc3ncc4c(n3)N(C)CN(c3c(F)cccc3Cl)C4=O)cc2)CCN1	≤ 15 µL/min/mg
Cc1cc(Nc2ncc3c(n2)N(C)CN(c2c(Cl)cccc2Cl)C3=O)ccc1N1C[C@@H]2C[C@H]1CN2	≤ 15 µL/min/mg
COC[C@H]1CN(c2ccc(Nc3ncc4c(n3)N(C)CN(c3c(F)cccc3Cl)C4=O)cc2)CCN1	≤ 15 µL/min/mg
CN1CCN(c2ccc(Nc3ncc4c(n3)N(C)CN(c3c(Cl)cccc3Cl)C4=O)cc2)[C@H](CO)C1	15 to 50 µL/min/mg
CN1CN(c2c(F)cccc2Cl)C(=O)c2cnc(Nc3ccc(N4CCNCC4)cc3)nc21	≤ 15 µL/min/mg
CNCc1cc(Nc2ncc3c(n2)N(C)CN(c2c(Cl)cccc2Cl)C3=O)ccc1N1CCS(=O)(=O)CC1	≤ 15 µL/min/mg
COC[C@@H]1CN(c2ccc(Nc3ncc4c(n3)N(C)CN(c3c(Cl)cccc3Cl)C4=O)cc2)CCN1	≤ 15 µL/min/mg
COC[C@H]1CNCCN1c1ccc(Nc2ncc3c(n2)N(C)CN(c2c(Cl)cccc2Cl)C3=O)cc1	≤ 15 µL/min/mg
CNCc1cc(Nc2ncc3c(n2)N(C)CN(c2c(Cl)cccc2Cl)C3=O)ccc1-c1cccnc1	15 to 50 µL/min/mg
CN1CN(c2c(Cl)cccc2Cl)C(=O)c2cnc(Nc3ccc(N4CCN(CCO)CC4)cc3)nc21	15 to 50 µL/min/mg
CN1CCC(Nc2cccc(Nc3ncc4c(n3)N(C)CN(c3c(Cl)cccc3Cl)C4=O)c2)CC1	≤ 15 µL/min/mg

====

# Tested System: Wee-1 kinase (Homo sapiens, UniProt P30291)
# Sequence (P30291 whole entry): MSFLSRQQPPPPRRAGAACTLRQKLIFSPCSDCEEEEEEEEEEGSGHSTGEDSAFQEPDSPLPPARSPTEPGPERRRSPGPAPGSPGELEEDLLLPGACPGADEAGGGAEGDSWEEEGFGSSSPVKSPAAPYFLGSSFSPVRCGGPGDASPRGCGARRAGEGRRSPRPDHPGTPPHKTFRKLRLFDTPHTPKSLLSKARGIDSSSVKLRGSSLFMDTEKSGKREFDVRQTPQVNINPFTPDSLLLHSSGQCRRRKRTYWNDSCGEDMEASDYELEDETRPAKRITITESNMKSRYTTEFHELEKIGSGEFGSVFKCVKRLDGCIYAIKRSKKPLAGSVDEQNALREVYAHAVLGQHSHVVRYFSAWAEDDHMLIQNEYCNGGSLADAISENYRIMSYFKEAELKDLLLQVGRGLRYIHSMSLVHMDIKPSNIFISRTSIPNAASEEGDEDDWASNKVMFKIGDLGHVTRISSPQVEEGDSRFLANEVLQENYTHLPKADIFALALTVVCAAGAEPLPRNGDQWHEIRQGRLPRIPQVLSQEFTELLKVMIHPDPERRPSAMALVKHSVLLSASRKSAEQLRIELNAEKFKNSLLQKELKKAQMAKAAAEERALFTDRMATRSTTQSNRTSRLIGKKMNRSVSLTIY

Molecule	IC50
CCN1CCN(c2ccc(Nc3ncc4c(n3)N(C)CN(c3ccccc3Cl)C4=O)cc2CO)CC1	0.01 to 0.1 µM
Cc1cccc(Cl)c1N1CN(C)c2nc(Nc3ccc(N4CC5CCC(C4)N5C)c(CO)c3)ncc2C1=O	≤ 0.01 µM
CNCCOc1ccc(Nc2ncc3c(n2)N(C)CN(c2c(Cl)cccc2Cl)C3=O)cc1	≤ 0.01 µM
[2H]C1([2H])N(C)c2nc(Nc3ccc(N4CCNCC4)cc3)ncc2C(=O)N1c1c(Cl)cccc1Cl	≤ 0.01 µM
CN1CN(c2c(Cl)cccc2Cl)C(=O)c2cnc(Nc3ccc4c(c3)C3CCC4N3)nc21 (centres unmarked)	0.01 to 0.1 µM
CN1CN(c2c(F)cccc2Cl)C(=O)c2cnc(Nc3ccc(N4CCOCC4)c(CO)c3)nc21	0.01 to 0.1 µM
C[C@@H]1CN(c2ccc(Nc3ncc4c(n3)N(c3ccn(C)n3)CN(c3c(Cl)cccc3Cl)C4=O)cc2)CCN1	≤ 0.01 µM
CN1CN(c2c(Cl)cccc2Cl)C(=O)c2cnc(Nc3ccc(N4CCS(=O)(=O)CC4)cc3)nc21	0.01 to 0.1 µM

====

# Measurement Notes: CLint estimates using human liver microsomes (Method 4)
# Type: in vitro ADME
# Assay Context: pH 7.4, 1 μM compound, read-out: Mics - CLint (HLM CLint)
Test Readout: microsomal CLint at 1 μM

Molecule	Result
CN1CC2CN(c3ccc(Nc4ncc5c(n4)N(C)CN(c4c(Cl)cccc4Cl)C5=O)cc3)CC2C1 (stereo not drawn) [Example 35]	15 to 50 µL/min/mg
CN1CN(c2c(Cl)cccc2Cl)C(=O)c2cnc(Nc3ccc(CN4CCOCC4)cc3)nc21 [Example 27]	≥ 50 µL/min/mg
C[C@@H]1CN(c2ccc(Nc3ncc4c(n3)N(C)CN(c3c(Cl)cccc3Cl)C4=O)cc2C(F)F)CCN1 [Example 139]	15 to 50 µL/min/mg
[2H]C1([2H])N(C)c2nc(Nc3ccc(N4CCNCC4)cc3)ncc2C(=O)N1c1c(Cl)cccc1Cl [Example 15]	≤ 15 µL/min/mg
Cc1cc(Nc2ncc3c(n2)N(C)CN(c2c(C)cccc2Cl)C3=O)ccc1N1C[C@@H]2C[C@H]1CN2 [Example 112]	≤ 15 µL/min/mg
CN1CN(c2c(Cl)cccc2Cl)C(=O)c2cnc(Nc3ccc(N4CCN(C)[C@H](CO)C4)cc3)nc21 [Example 49]	15 to 50 µL/min/mg
CN1CN(c2c(Cl)cccc2Cl)C(=O)c2cnc(Nc3ccc(N4C[C@@H]5C[C@H]4CN5C)cc3)nc21 [Example 44]	≤ 15 µL/min/mg
CN1CN(c2c(Cl)cccc2Cl)C(=O)c2cnc(Nc3ccc4c(c3)CNCC4)nc21 [Example 14]	≤ 15 µL/min/mg
CNCc1cc(Nc2ncc3c(n2)N(C)CN(c2c(Cl)cccc2Cl)C3=O)ccc1N1C[C@@H](C)O[C@@H](C)C1 [Example 148]	15 to 50 µL/min/mg
C[C@@H]1CN(c2ccc(Nc3ncc4c(n3)N(C)CN(c3c(Cl)cccc3Cl)C4=O)c(F)c2)CCN1 [Example 142]	15 to 50 µL/min/mg
CN1c2nc(Nc3ccc4c(c3)CNCC4)ncc2C(=O)N(c2c(Cl)cccc2Cl)C1c1ccccc1 (racemic) [Example 23]	15 to 50 µL/min/mg
C[C@@H]1CN[C@@H](C)CN1c1ccc(Nc2ncc3c(n2)N(C)CN(c2c(Cl)cccc2Cl)C3=O)cc1 [Example 40]	≤ 15 µL/min/mg
CNCc1cc(Nc2ncc3c(n2)N(C)CN(c2c(Cl)cccc2Cl)C3=O)ccc1F [Example 152]	≤ 15 µL/min/mg
[2H]C([2H])([2H])N1CN(c2c(Cl)cccc2Cl)C(=O)c2cnc(Nc3ccc(N4CCN[C@H](C)C4)cc3)nc21 [Example 78]	≤ 15 µL/min/mg
CN1CN(c2c(Cl)cccc2Cl)C(=O)c2cnc(Nc3ccc(OC4CCNCC4)cc3)nc21 [Example 87]	≤ 15 µL/min/mg
CN1CN(c2c(Cl)cccc2Cl)C(=O)c2cnc(Nc3ccc(CN4CCNCC4)cc3)nc21 [Example 12]	≤ 15 µL/min/mg
COCCN1CCN(c2ccc(Nc3ncc4c(n3)N(C)CN(c3c(Cl)cccc3Cl)C4=O)cc2)CC1 [Example 120]	15 to 50 µL/min/mg
CN1CN(c2c(Cl)cccc2Cl)C(=O)c2cnc(Nc3ccc(C4CCNCC4)c(CO)c3)nc21 [Example 167]	≤ 15 µL/min/mg
CN1CN(c2c(Cl)cccc2Cl)C(=O)c2cnc(Nc3ccc(N4CCN(C5CC5)CC4)cc3)nc21 [Example 115]	15 to 50 µL/min/mg
Cc1cc(Nc2ncc3c(n2)N(C)CN(c2c(F)cccc2Cl)C3=O)ccc1N1CCNCC1 [Example 55]	≤ 15 µL/min/mg
Cc1cccc(Cl)c1N1CN(C)c2nc(Nc3ccc(N4C[C@H](C)NC[C@H]4C)cc3)ncc2C1=O [Example 102]	≤ 15 µL/min/mg
CN1CN(c2c(Cl)cccc2Cl)C(=O)c2cnc(Nc3ccc(N4CCOCC4)cc3)nc21 [Example 41]	15 to 50 µL/min/mg
COC[C@@H]1CNCCN1c1ccc(Nc2ncc3c(n2)N(C)CN(c2c(Cl)cccc2Cl)C3=O)cc1 [Example 130]	15 to 50 µL/min/mg
CN1CCN(Cc2ccc(Nc3ncc4c(n3)N(C)CN(c3c(Cl)cccc3Cl)C4=O)cc2)CC1 [Example 29]	≥ 50 µL/min/mg
CNCc1cc(Nc2ncc3c(n2)N(C)CN(c2c(Cl)cccc2Cl)C3=O)ccc1N1CCC(F)(F)CC1 [Example 147]	≤ 15 µL/min/mg
C[C@@H]1CN(c2ccc(Nc3ncc4c(n3)N(C)CN(c3c(Cl)cccc3Cl)C4=O)cc2F)CCN1 [Example 43]	≤ 15 µL/min/mg
CN(C)Cc1cc(Nc2ncc3c(n2)N(C)CN(c2c(Cl)cccc2Cl)C3=O)ccc1N1CCC(F)(F)CC1 [Example 150]	≥ 50 µL/min/mg
CCN1CCN(c2ccc(Nc3ncc4c(n3)N(C)CN(c3ccccc3Cl)C4=O)cc2CO)CC1 [Example 113]	15 to 50 µL/min/mg
CN1CN(c2ccccc2Cl)C(=O)c2cnc(Nc3ccc(N4CCNC(C)(C)C4)cc3)nc21 [Example 106]	≤ 15 µL/min/mg
CN1CN(c2c(Cl)cccc2Cl)C(=O)c2cnc(Nc3ccc(N4CCN[C@H](CO)C4)cc3)nc21 [Example 20]	15 to 50 µL/min/mg
